Recorded values, source PubChem BioAssay AID1418.

# system name: Induced myeloid leukemia cell differentiation protein Mcl-1 (Homo sapiens)
# method description: blockers of Bid binding to Mcl-1 – biochemical, TR-FRET, dose response (AID 1418)
# run parameters: Mcl-1/Bid peptide binding, TR-FRET (europium/Dy647), 2 hr
Activity calls are given as the source filed them. The rule behind the calls is not given here.
Possible outcomes: active, inactive

> print(dat)
                            smiles.structure  label.value
 1  COc1ccc2[nH]c3c(c2c1)CCn1c-3nc2sc(C(=O)Nc3ccccc3)c(C)c2c1=O       active
 2      CCc1ccc(NC(=O)c2ccnc(C(C)(C)C)c2)cc1     inactive
 3  O=C(Nc1ccc(-c2nc3cc(Cl)ccc3c(=O)o2)cc1)c1ccco1     inactive
 4              Cc1ccsc1C(=O)OCC(=O)N1CCOCC1     inactive
 5        Cc1ccccc1OCCNC(=O)CNC(=O)c1ccccc1O     inactive
 6      O=C(O)c1[nH]c2ccccc2c1C=NCc1ccccc1Cl     inactive
 7  O=C(Nc1nccs1)c1cccc(N2C(=O)c3cccc4c([N+](=O)[O-])ccc(c34)C2=O)c1       active
 8  O=C(Nc1ccc(S(=O)(=O)Nc2ncccn2)cc1)c1ccc2ncsc2c1       active
 9  C=CCn1c(SCc2ccc(C#N)cc2)nnc1-c1cccc(OC)c1     inactive
10     O=C(N/N=C/c1ccco1)c1ccc(N2CCCC2=O)cc1     inactive
11  CC(C)n1c(SCC(=O)Nc2ccc3c(c2)OCO3)nc2c1c(=O)n(C)c(=O)n2C     inactive
